Parameter: pKd. Scope: all listed entries.
Biological target: T1, IFN-αG (human, UniProt P01569 24-189)
T1 construct: Recombinant, HEK293; also called IFN-α5
Experiment: ProteOn SPR, cell supernatant;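 also: each binding measurement used just a single antigen concentration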
When answering, recall that pKd equals minus log10 of the concentration in mol/L, and write that number alone.

Answered cases to consult:
For IFWM3377 (antibody, IgG1, V domains shown, mAb; IgG1/kappa said of the parent and of selected mAbs; also called IFWB3112) VH: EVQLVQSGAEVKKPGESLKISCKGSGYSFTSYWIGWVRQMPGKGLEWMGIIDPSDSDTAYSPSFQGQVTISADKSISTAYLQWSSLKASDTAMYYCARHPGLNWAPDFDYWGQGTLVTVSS VL: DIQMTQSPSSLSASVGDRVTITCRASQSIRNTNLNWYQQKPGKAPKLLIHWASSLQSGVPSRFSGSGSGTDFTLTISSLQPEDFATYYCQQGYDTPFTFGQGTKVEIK , what is its reported pKd?
10.42

For IFWM3379 (antibody, IgG1, V domains shown, mAb; IgG1/kappa said of the parent and of selected mAbs; also called IFWB3114) VH: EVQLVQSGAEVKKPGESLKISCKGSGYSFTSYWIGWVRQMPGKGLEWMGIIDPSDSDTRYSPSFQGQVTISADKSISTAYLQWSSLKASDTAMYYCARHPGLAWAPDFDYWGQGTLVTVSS VL: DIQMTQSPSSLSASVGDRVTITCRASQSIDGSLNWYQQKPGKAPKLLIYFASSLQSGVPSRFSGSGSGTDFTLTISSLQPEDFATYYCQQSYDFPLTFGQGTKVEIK , what is its reported pKd?
10.89

---
For IFWM3411 (antibody, IgG1, V domains shown, mAb; IgG1/kappa said of the parent and of selected mAbs; also called IFWB3146) VH: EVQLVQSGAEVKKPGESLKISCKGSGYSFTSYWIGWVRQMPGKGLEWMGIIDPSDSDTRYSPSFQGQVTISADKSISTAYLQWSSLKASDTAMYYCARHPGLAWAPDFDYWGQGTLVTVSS VL: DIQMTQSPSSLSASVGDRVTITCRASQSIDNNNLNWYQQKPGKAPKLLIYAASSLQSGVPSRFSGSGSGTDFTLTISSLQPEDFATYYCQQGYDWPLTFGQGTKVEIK , what is its reported pKd?
10.46

The measured values listed here are drawn from patent US20150368338A1.
